MEASUREMENT TARGET: T1, human CD3 E&D complex protein (Sino Biological Inc., CT026H0323H) (human, UniProt P07766 23-126; P04234 22-105)
T1 construct: bought heterodimer; also called human CD3 protein (CT026H0323H)
T1 sequence (P07766 23-126, chain 1 of 2): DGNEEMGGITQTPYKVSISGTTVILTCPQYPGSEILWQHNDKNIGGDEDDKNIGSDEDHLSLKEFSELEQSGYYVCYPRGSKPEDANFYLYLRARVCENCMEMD
T1 sequence (P04234 22-105, chain 2 of 2): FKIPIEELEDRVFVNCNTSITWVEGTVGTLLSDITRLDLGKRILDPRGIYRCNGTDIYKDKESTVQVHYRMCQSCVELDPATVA
TEST METHOD NOTES: BLI, antibody on sensor
Listed below: koff values for each entry.
All answers are understood in s⁻¹, so give the number only.

Known results for binders:
koff for hzsp34.98 (antibody, human IgG1, lambda, L234A L235A, V domains shown, CDR mutant of hzsp34.24; IgG1 L234A L235A, lambda) VH: EVQLVESGGGLVQPGGSLKLSCAASGFTFNTYAMNWVRQASGKGLEWVGRIRSKYNNYATYYADSVKDRFTISRDDSKSTLYLQMNSLKTEDTAVYYCARHYGFGQSYVSWFAYWGQGTTVTVSS VL: QAVVTQEPSLTVSPGGTVTLTCRSSTGAVTTSNYANWVQQKPGQAPRGLIGGTNKRAPGVPARFSGSLLGDKAALTLLGAQPEDEAEYYCALWYSNLWVFGQGTKLTVLG ?
0.00184

koff for hzsp34.115 (antibody, human IgG1, lambda, L234A L235A, V domains shown, CDR mutant of hzsp34.24; IgG1 L234A L235A, lambda) VH: EVQLVESGGGLVQPGGSLKLSCAASGFTFNTYAMNWVRQASGKGLEWVGRIRSKYNNYATYYADSVKDRFTISRDDSKSTLYLQMNSLKTEDTAVYYCARHGNFGQSYVSWFAYWGQGTTVTVSS VL: QAVVTQEPSLTVSPGGTVTLTCRSSTGAVTTSNYANWVQQKPGQAPRGLIGGTNSRAPGVPARFSGSLLGDKAALTLLGAQPEDEAEYYCALWYSNLWVFGQGTKLTVLG ?
0.000331

koff for hzsp34.81 (antibody, human IgG1, lambda, L234A L235A, V domains shown, CDR mutant of hzsp34.24; IgG1 L234A L235A, lambda) VH: EVQLVESGGGLVQPGGSLKLSCAASGFTFNTYAMNWVRQASGKGLEWVGRISSKYNNYATYYADSVKDRFTISRDDSKSTLYLQMNSLKTEDTAVYYCARHGNFGQSYVSWFAYWGQGTTVTVSS VL: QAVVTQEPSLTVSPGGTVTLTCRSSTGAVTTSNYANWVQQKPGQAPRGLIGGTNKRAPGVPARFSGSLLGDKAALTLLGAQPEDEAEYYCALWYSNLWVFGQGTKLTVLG ?
0.00143

koff for hzsp34.101 (antibody, human IgG1, lambda, L234A L235A, V domains shown, CDR mutant of hzsp34.24; IgG1 L234A L235A, lambda) VH: EVQLVESGGGLVQPGGSLKLSCAASGFTFNTYAMNWVRQASGKGLEWVGRIRSKYNNYATYYADSVKDRFTISRDDSKSTLYLQMNSLKTEDTAVYYCARHGNFGQSAASWFAYWGQGTTVTVSS VL: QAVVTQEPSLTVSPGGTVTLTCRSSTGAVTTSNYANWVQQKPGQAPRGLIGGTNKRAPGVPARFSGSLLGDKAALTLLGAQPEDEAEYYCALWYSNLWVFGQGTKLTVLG ?
0.00082

koff for hzsp34.108 (antibody, human IgG1, lambda, L234A L235A, V domains shown, CDR mutant of hzsp34.24; IgG1 L234A L235A, lambda) VH: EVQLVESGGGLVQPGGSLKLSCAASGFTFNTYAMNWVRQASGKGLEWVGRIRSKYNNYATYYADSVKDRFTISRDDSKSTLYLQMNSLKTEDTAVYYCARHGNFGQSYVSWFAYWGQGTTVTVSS VL: QAVVTQEPSLTVSPGGTVTLTCRSSTGAVTTSNYANWVQQKPGQAPRGLIGGTNKRAPGVPARFSGSLLGDKAALTLLGAQPEDEAEYYCALWASNLWVFGQGTKLTVLG ?
0.0002

koff for hzsp34.92 (antibody, human IgG1, lambda, L234A L235A, V domains shown, CDR mutant of hzsp34.24; IgG1 L234A L235A, lambda) VH: EVQLVESGGGLVQPGGSLKLSCAASGFTFNTYAMNWVRQASGKGLEWVGRIRSKYNNYATYYADSVKDRFTISRDDSKSTLYLQMNSLKTEDTAVYYCARHGNFGQRYVSWFAYWGQGTTVTVSS VL: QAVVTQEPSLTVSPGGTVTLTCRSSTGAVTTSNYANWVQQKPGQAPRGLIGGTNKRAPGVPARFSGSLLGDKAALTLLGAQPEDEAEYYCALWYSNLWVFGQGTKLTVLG ?
0.0002

koff for hzsp34.88 (antibody, human IgG1, lambda, L234A L235A, V domains shown, CDR mutant of hzsp34.24; IgG1 L234A L235A, lambda) VH: EVQLVESGGGLVQPGGSLKLSCAASGFTFNTYAMNWVRQASGKGLEWVGRIRSKYNNYATYYADSVKDRFTISRDDSKSTLYLQMNSLKTEDTAVYYCARHGGFGQSYVSWFAYWGQGTTVTVSS VL: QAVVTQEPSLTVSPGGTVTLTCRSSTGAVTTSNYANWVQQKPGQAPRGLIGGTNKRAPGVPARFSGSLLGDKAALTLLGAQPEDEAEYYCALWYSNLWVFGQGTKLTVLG ?
0.000797

koff for sp34 (antibody, human IgG1, lambda, L234A L235A, V domains shown, mouse variable regions on human IgG1 L234A L235A and lambda constant regions; also called chimeric antibody sp34; mouse sp34) VH: EVQLVESGGGLVQPKGSLKLSCAASGFTFNTYAMNWVRQAPGKGLEWVARIRSKYNNYATYYADSVKDRFTISRDDSQSILYLQMNNLKTEDTAMYYCVRHGNFGNSYVSWFAYWGQGTLVTVSS VL: QAVVTQESALTTSPGETVTLTCRSSTGAVTTSNYANWVQEKPDHLFTGLIGGTNKRAPGVPARFSGSLIGDKAALTITGAQTEDEAIYFCALWYSNLWVFGGGTKLTVLG ?
0.000157

Further cases:
koff for hzsp34.112 (antibody, human IgG1, lambda, L234A L235A, V domains shown, CDR mutant of hzsp34.24; IgG1 L234A L235A, lambda) VH: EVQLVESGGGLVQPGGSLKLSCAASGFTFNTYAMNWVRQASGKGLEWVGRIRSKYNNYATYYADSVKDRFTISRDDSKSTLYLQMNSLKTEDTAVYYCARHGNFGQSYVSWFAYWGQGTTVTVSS VL: QAVVTQEPSLTVSPGGTVTLTCRSSTGAVTTRGYANWVQQKPGQAPRGLIGGTNKRAPGVPARFSGSLLGDKAALTLLGAQPEDEAEYYCALWYSNLWVFGQGTKLTVLG ?
0.000204

koff for hzsp34.84 (antibody, human IgG1, lambda, L234A L235A, V domains shown, CDR mutant of hzsp34.24; IgG1 L234A L235A, lambda) VH: EVQLVESGGGLVQPGGSLKLSCAASGFTFNTYAMNWVRQASGKGLEWVGRIRSKYGNYATYYADSVKDRFTISRDDSKSTLYLQMNSLKTEDTAVYYCARHGNFGQSYVSWFAYWGQGTTVTVSS VL: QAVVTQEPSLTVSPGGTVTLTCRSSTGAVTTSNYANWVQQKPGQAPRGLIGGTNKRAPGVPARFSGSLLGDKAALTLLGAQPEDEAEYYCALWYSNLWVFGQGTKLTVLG ?
0.0002

Source: patent US20230374132A1
